- experimental-system: CD45 (Homo sapiens, UniProt P08575)
- Construct: incubating the cytosolic portion of CD45 with the compounds and p-nitrophenyl phosphate (pNPP); purchased BIOMOL (Plymouth Meeting, Pa.)
- Sequence (P08575 599-1306 limits assumed): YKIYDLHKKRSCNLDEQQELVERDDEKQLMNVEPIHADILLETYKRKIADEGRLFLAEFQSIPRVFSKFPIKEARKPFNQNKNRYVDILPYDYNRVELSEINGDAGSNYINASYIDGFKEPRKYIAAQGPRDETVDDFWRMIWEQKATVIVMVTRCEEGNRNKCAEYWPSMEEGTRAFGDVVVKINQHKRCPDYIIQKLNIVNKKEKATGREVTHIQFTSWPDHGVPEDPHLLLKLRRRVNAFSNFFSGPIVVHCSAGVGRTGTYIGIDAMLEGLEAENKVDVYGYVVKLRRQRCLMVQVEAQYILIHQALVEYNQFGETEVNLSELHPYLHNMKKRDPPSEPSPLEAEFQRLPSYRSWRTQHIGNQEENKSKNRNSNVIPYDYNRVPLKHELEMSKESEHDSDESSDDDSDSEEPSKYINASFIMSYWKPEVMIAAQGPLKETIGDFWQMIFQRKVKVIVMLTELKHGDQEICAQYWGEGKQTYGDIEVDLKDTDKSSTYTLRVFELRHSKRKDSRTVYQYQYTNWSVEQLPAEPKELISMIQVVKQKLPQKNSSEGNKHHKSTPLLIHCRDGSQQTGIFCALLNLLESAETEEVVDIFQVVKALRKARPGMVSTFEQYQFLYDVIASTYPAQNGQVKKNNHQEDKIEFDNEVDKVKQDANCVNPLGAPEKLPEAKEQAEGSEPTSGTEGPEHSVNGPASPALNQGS
- experiment-summary: Phosphatase assay using pNPP as substrate
- Type: biochemical
- assay-conditions: CD45 phosphatase, pNPP substrate, pH 7.0; read-out: pNPP IC50
pIC50: −log10 of the molar value.
observation-type: pIC50

[
  {
    "test-smiles": "O=C1C(=O)c2cc(-c3ccccc3F)ccc2-c2ccccc21",
    "observation-type": "pIC50",
    "val": 6.12
  },
  {
    "test-smiles": "O=C1C(=O)c2cc(-c3ccc4c(c3)OCO4)ccc2-c2ccccc21",
    "observation-type": "pIC50",
    "val": 6.00
  },
  {
    "test-smiles": "CCCC(=O)Nc1ccc2c(c1)-c1ccccc1C(=O)C2=O",
    "observation-type": "pIC50",
    "val": 6.10
  },
  {
    "test-smiles": "COc1ccccc1-c1ccc2c(c1)C(=O)C(=O)c1ccccc1-2",
    "observation-type": "pIC50",
    "val": 6.00
  },
  {
    "test-smiles": "COC(=O)CCCCCCC(=O)Nc1cccc2c1-c1ccccc1C(=O)C2=O",
    "observation-type": "pIC50",
    "val": 6.00
  }
]

* * *

- experimental-system: CD45 (Homo sapiens, UniProt P08575)
- Construct: incubating the cytosolic portion of CD45 with the compounds and p-nitrophenyl phosphate (pNPP); purchased BIOMOL (Plymouth Meeting, Pa.)
- Sequence (P08575 599-1306 limits assumed): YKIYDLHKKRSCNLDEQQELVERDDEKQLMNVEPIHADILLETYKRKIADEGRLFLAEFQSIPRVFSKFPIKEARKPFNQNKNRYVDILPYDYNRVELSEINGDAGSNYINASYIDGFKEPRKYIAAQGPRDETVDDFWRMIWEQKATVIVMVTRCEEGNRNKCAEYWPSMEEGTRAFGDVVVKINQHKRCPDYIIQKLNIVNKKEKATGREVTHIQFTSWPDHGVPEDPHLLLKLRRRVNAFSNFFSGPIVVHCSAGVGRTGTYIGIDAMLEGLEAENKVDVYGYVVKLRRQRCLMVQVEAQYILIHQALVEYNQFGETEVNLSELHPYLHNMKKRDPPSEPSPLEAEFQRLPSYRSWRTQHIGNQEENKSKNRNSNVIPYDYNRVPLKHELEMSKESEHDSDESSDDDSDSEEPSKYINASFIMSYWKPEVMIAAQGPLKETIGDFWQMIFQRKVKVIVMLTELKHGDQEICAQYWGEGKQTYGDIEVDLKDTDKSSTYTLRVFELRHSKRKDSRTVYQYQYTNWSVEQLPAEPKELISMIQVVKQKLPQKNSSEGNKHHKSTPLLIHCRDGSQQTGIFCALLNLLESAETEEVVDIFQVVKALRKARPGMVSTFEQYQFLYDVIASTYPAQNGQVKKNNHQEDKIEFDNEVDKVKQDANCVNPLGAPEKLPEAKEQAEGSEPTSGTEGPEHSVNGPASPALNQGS
- experiment-summary: Phosphatase assay using lck 10-mer as substrate
- Type: biochemical
- assay-conditions: CD45 phosphatase, lck carboxy-terminal peptide TEGQpYQPQP substrate, pH 7.2; read-out: Ick IC50
Where a SMILES comes first, the peptide text is derived from it. The star is where a group is joined. 3Phenanthroyl(9,10-dioxo) = O=C1C(=O)c2ccc(C(=O)*)cc2-c2ccccc21
Entries annotated with measured IC50
observation-type: IC50 (µM)

[
  {
    "compound": "COC(=O)CCCCCCCCC(=O)Nc1ccc2c(c1)-c1ccccc1C(=O)C2=O [Example 79]",
    "value-relation-sign": ">",
    "val": 30
  },
  {
    "compound": "O=C1C(=O)c2cc(-c3ccsc3)ccc2-c2ccccc21 [Example 17, 2-Thiophen-3-yl-phenanthrene-9,10-dione]",
    "value-relation-sign": ">",
    "val": 30
  },
  {
    "compound": "O=C1C(=O)c2c(-c3ccc4ccccc4c3)cccc2-c2ccccc21 [Example 19]",
    "value-relation-sign": ">",
    "val": 30
  },
  {
    "compound": "COC(=O)CCCCCCCCC(=O)Nc1ccc2c(c1)C(=O)C(=O)c1cccc(NC(=O)CCCCCCCCC(=O)OC)c1-2 [Example 76]",
    "value-relation-sign": ">",
    "val": 30
  },
  {
    "compound": "NC(=O)CC[C@H](NC(=O)c1ccc2c(c1)-c1ccccc1C(=O)C2=O)C(=O)N[C@@H](CCC(N)=O)C(=O)N1CCC[C@H]1C(=O)N[C@@H](CCC(=O)O)C(=O)NCC(=O)O [Example 34] ({3Phenanthroyl(9,10-dioxo)}-QQPEG-OH)",
    "value-relation-sign": "=",
    "val": 1.9
  },
  {
    "compound": "NC(=O)CC[C@H](NC(=O)[C@@H]1CCCN1C(=O)[C@H](CCC(N)=O)NC(=O)CNC(=O)c1ccc2c(c1)-c1ccccc1C(=O)C2=O)C(=O)NCC(=O)O [Example 36] ({3Phenanthroyl(9,10-dioxo)}-GQPQG-OH)",
    "value-relation-sign": "=",
    "val": 2.2
  },
  {
    "compound": "CCCC(=O)Nc1ccc2c(c1)C(=O)C(=O)c1ccccc1-2 [Example 3]",
    "value-relation-sign": "=",
    "val": 17
  },
  {
    "compound": "CC(C)(C)C(=O)Nc1ccc2c(c1)C(=O)C(=O)c1ccccc1-2 [Example 4]",
    "value-relation-sign": "=",
    "val": 3.8
  },
  {
    "compound": "COC(=O)CCCC(=O)Nc1ccc2c(c1)C(=O)C(=O)c1cccc(NC(=O)CCCC(=O)OC)c1-2 [Example 74]",
    "value-relation-sign": "=",
    "val": 3.3
  },
  {
    "compound": "Cc1ccc(S(=O)(=O)Nc2ccc3c(c2)C(=O)C(=O)c2ccccc2-3)cc1 [Example 15]",
    "value-relation-sign": "=",
    "val": 15
  },
  {
    "compound": "COC(=O)CCCC(=O)Nc1cccc2c1-c1ccccc1C(=O)C2=O [Example 67]",
    "value-relation-sign": "=",
    "val": 2.2
  },
  {
    "compound": "NC(=O)CC[C@H](NC(=O)CNC(=O)c1ccc2c(c1)-c1ccccc1C(=O)C2=O)C(=O)N1CCC[C@H]1C(=O)N[C@@H](CCC(=O)O)C(=O)NCC(=O)O [Example 39] ({3Phenanthroyl(9,10-dioxo)}-GQPEG-OH)",
    "value-relation-sign": "=",
    "val": 2.3
  },
  {
    "compound": "CC(C)(C)OC(=O)CNC(=O)c1ccc2c(c1)-c1ccccc1C(=O)C2=O [Example 102]",
    "value-relation-sign": "=",
    "val": 3.4
  },
  {
    "compound": "CC(=O)Nc1ccc2c(c1)C(=O)C(=O)c1ccccc1-2 [Example 81]",
    "value-relation-sign": "=",
    "val": 2.5
  }
]
